Form field: pIC50 (one value per entry).
molecular target: Na^+,K^+ -ATPase (Canis lupus familiaris, UniProt P50997); construct: Na^+,K^+ -ATPase receptor purified according to Jorghensen; from tissue; assay: displacement of the specific ^3 H-ouabain binding from the purified Na^+,K^+ -ATPase receptor
pIC50: −log10 of the molar value.
ENDPOINT_LABEL: pIC50

1) C[C@]12CC[C@H](O)C[C@H]1CC[C@@H]1[C@@H]2CC[C@]2(C)[C@@H](c3ccoc3)CC[C@]12O [Ref. comp., 17β-(3-furyl)-5β-androstane-3β, 14β-diol, reference compound]; 6.30
2) C[C@]12CC[C@H](OCCCN)C[C@@H]1CC[C@@H]1[C@@H]2CC[C@@]2(C)[C@H]1CC[C@@]2(O)c1ccoc1 [Comp. I-ai]; 6.60

====

SYSTOLIC BLOOD PRESSURE FALL IN SPONTANEOUS HYPERTENSIVE RATS (MHS), SBP by entry:
tested on: hypertensive MHS rats; experiment: systolic blood pressure and heart rate in hypertensive MHS rats (indirect tail-cuff, ten-day oral treatment); assay type: in vivo, rat; details: 20 mg/Kg/os daily for ten days, in METHOCEL 0.5% w/v, 7 rats; controls 171 +/- 4.5
ENDPOINT_LABEL: SYSTOLIC BLOOD PRESSURE FALL IN SPONTANEOUS HYPERTENSIVE RATS (MHS), SBP

1. C[C@]12CC[C@H](OCCOCCN3CCCC3)C[C@@H]1CC[C@@H]1[C@@H]2CC[C@@]2(C)[C@H]1CC[C@@]2(OCCN)c1ccoc1; 153 +/- 5.1 mm Hg
2. C[C@]12CC[C@H](OCCOCCN3CCCC3)C[C@@H]1CC[C@@H]1[C@@H]2CC[C@@]2(C)[C@H]1CC[C@@]2(OCCN1CCCC1)c1ccoc1; 152 +/- 5.0 mm Hg
3. C[C@]12CC[C@H](O)C[C@H]1CC[C@@H]1[C@@H]2CC[C@]2(C)[C@@H](c3ccoc3)CC[C@]12O [Ref. comp., 17β-(3-furyl)-5β-androstane-3β, 14β-diol, reference compound]; 173 +/- 4.0 mm Hg
4. C[C@]12CC[C@H](OCCOCCN3CCCC3)C=C1CC[C@@H]1[C@@H]2CC[C@@]2(C)[C@H]1CC[C@@]2(OCCN)c1ccoc1; 148 +/- 3.2 mm Hg
5. C[C@]12CC[C@H](OCCOCCN3CCCC3)CC1=CC[C@@H]1[C@@H]2CC[C@@]2(C)[C@H]1CC[C@@]2(OCCN1CCCC1)c1ccoc1; 149 +/- 4.8 mm Hg
